biological target: human factor XIa (human), P03951
Endpoint name: pKi
Give bare numbers, as −log10 of the molar value.

Query: Request the reported pKi associated with DrKIn-I (Daboia russelii Kunitz Inhibitor-I), A8Y7N4 25-90 (protein, modifications not checked) QDRPKFCNLAPESGRCRGHLRRIYYNPDSNKCEVFFYGGCGGNDNNFETRKKCRQTCGAPRKGRPT
Result: 8.88

Reference source for all entries: patent US20140142040A1
